EXPERIMENT_NOTES: Cytotoxicity assay
EXPERIMENTAL_CONDITIONS: human, Huh7-hACE2 cells
Some molecules, each annotated with its measured CC50 at 20 h.

{"MOLECULE": "COC(=O)N[C@H](C(=O)N1CCC[C@H]1c1nc(-c2ccc3c(c2)O[C@@H](c2ccccc2)n2c-3cc3cc(-c4c[nH]c([C@@H]5CCCN5C(=O)[C@@H](NC(=O)OC)C(C)C)n4)ccc32)c[nH]1)C(C)C", "INEQUALITY_SIGN": ">", "CC50 at 20 h, µM": 1000}
{"MOLECULE": "Cc1ccc(C(=O)Nc2ccc(CN3CCN(C)CC3)c(C(F)(F)F)c2)cc1C#Cc1cnc2cccnn12", "INEQUALITY_SIGN": "=", "CC50 at 20 h, µM": 8.7}
{"MOLECULE": "COc1cc([C@@H]2c3cc4c(cc3[C@@H](O[C@@H]3O[C@@H]5CO[C@@H](c6cccs6)O[C@H]5[C@H](O)[C@H]3O)[C@H]3COC(=O)[C@H]23)OCO4)cc(OC)c1O [Teniposide]", "INEQUALITY_SIGN": ">", "CC50 at 20 h, µM": 100}
{"MOLECULE": "CCc1c2c(nc3ccc(OC(=O)N4CCC(N5CCCCC5)CC4)cc13)-c1cc3c(c(=O)n1C2)COC(=O)[C@]3(O)CC", "INEQUALITY_SIGN": ">", "CC50 at 20 h, µM": 100}
{"MOLECULE": "CC1(C)CCC(CN2CCN(c3ccc(C(=O)NS(=O)(=O)c4ccc(NCC5CCOCC5)c([N+](=O)[O-])c4)c(Oc4cnc5[nH]ccc5c4)c3)CC2)=C(c2ccc(Cl)cc2)C1", "INEQUALITY_SIGN": "=", "CC50 at 20 h, µM": 22}

---

System: MRC-5 cells
EXPERIMENT_NOTES: Cell viability assay
EXPERIMENTAL_CONDITIONS: read-out: CC50 (μM) (mean ± SD), 20 h, MTS

{"COMPOUND": "C=C[C@@H]1C[C@]1(NC(=O)[C@@H]1C[C@@H]2CN1C(=O)[C@H](C(C)(C)C)NC(=O)O[C@@H]1C[C@H]1CCCCCc1nc3ccc(OC)cc3nc1O2)C(=O)NS(=O)(=O)C1CC1.O", "TARGET": "MRC-5 cells", "READING_UNIT": "µM", "INEQUALITY_SIGN": "=", "CC50": 70}
{"COMPOUND": "Cn1nnc(-c2ccc(-c3ccc(N4C[C@H](COP(=O)(O)O)OC4=O)cc3F)cn2)n1 [Tedizolid, Tedizolid phosphate]", "TARGET": "MRC-5 cells", "READING_UNIT": "µM", "INEQUALITY_SIGN": ">", "CC50": 1000}

---

EXPERIMENT_NOTES: Cytotoxicity assay
EXPERIMENTAL_CONDITIONS: human, Huh7-hACE2 cells

{"CHEMICAL_STRING": "CC1(C)[C@@H](OC(=O)CCC(=O)O)CC[C@]2(C)[C@H]3C(=O)C=C4[C@@H]5C[C@@](C)(C(=O)O)CC[C@]5(C)CC[C@@]4(C)[C@]3(C)CC[C@@H]12", "READING_UNIT": "µM", "INEQUALITY_SIGN": ">", "CC50 at 20 h": 100}
{"CHEMICAL_STRING": "O=C1[C@@H]2[C@H]3CC[C@H](C3)[C@@H]2C(=O)N1C[C@@H]1CCCC[C@H]1CN1CCN(c2nsc3ccccc23)CC1", "READING_UNIT": "µM", "INEQUALITY_SIGN": ">", "CC50 at 20 h": 1000}
{"CHEMICAL_STRING": "COc1ccc2c(O[C@@H]3C[C@H]4C(=O)N[C@]5(C(=O)NS(=O)(=O)C6CC6)C[C@H]5/C=C\\CCCCN(C)C(=O)[C@@H]4C3)cc(-c3nc(C(C)C)cs3)nc2c1C", "READING_UNIT": "µM", "INEQUALITY_SIGN": "=", "CC50 at 20 h": 47.5}
{"CHEMICAL_STRING": "C[C@@H]1C/C=C/C=C/C=C/C=C/[C@H](O[C@@H]2O[C@H](C)[C@@H](O)[C@H](N)[C@@H]2O)C[C@@H]2O[C@](O)(C[C@@H](O)C[C@H]3O[C@@H]3/C=C/C(=O)O1)C[C@H](O)[C@H]2C(=O)O", "READING_UNIT": "µM", "INEQUALITY_SIGN": "=", "CC50 at 20 h": 35.9}
{"CHEMICAL_STRING": "Cc1ccc(C(=O)Nc2ccc(S(=O)(=O)O)c3cc(S(=O)(=O)O)cc(S(=O)(=O)O)c23)cc1NC(=O)c1cccc(NC(=O)Nc2cccc(C(=O)Nc3cc(C(=O)Nc4ccc(S(=O)(=O)O)c5cc(S(=O)(=O)O)cc(S(=O)(=O)O)c45)ccc3C)c2)c1", "READING_UNIT": "µM", "INEQUALITY_SIGN": ">", "CC50 at 20 h": 100}

---

EXPERIMENT_NOTES: Cell viability assay
EXPERIMENTAL_CONDITIONS: human, MRC-5 cells

{"MOLECULE": "CCc1c2c(nc3ccc(OC(=O)N4CCC(N5CCCCC5)CC4)cc13)-c1cc3c(c(=O)n1C2)COC(=O)[C@]3(O)CC", "INEQUALITY_SIGN": "=", "CC50 at 20 h / µM": 63.4}
{"MOLECULE": "O=C1[C@@H]2[C@H]3CC[C@H](C3)[C@@H]2C(=O)N1C[C@@H]1CCCC[C@H]1CN1CCN(c2nsc3ccccc23)CC1", "INEQUALITY_SIGN": ">", "CC50 at 20 h / µM": 1000}
{"MOLECULE": "COC(=O)N[C@H](C(=O)N1CCC[C@H]1c1nc(-c2ccc3c(c2)O[C@@H](c2ccccc2)n2c-3cc3cc(-c4c[nH]c([C@@H]5CCCN5C(=O)[C@@H](NC(=O)OC)C(C)C)n4)ccc32)c[nH]1)C(C)C", "INEQUALITY_SIGN": ">", "CC50 at 20 h / µM": 1000}
{"MOLECULE": "C[C@@H]1C/C=C/C=C/C=C/C=C/[C@H](O[C@@H]2O[C@H](C)[C@@H](O)[C@H](N)[C@@H]2O)C[C@@H]2O[C@](O)(C[C@@H](O)C[C@H]3O[C@@H]3/C=C/C(=O)O1)C[C@H](O)[C@H]2C(=O)O", "INEQUALITY_SIGN": "=", "CC50 at 20 h / µM": 47.3}
{"MOLECULE": "CC1(C)[C@@H](OC(=O)CCC(=O)O)CC[C@]2(C)[C@H]3C(=O)C=C4[C@@H]5C[C@@](C)(C(=O)O)CC[C@]5(C)CC[C@@]4(C)[C@]3(C)CC[C@@H]12", "INEQUALITY_SIGN": "=", "CC50 at 20 h / µM": 251}
{"MOLECULE": "CCN1CCN(C(=O)N[C@@H](C(=O)N[C@@H]2C(=O)N3C(C(=O)O)=C(CSc4nnnn4C)CS[C@H]23)c2ccc(O)cc2)C(=O)C1=O", "INEQUALITY_SIGN": ">", "CC50 at 20 h / µM": 1000}
{"MOLECULE": "CCc1cc2c(cc1N1CCC(N3CCOCC3)CC1)C(C)(C)c1[nH]c3cc(C#N)ccc3c1C2=O", "INEQUALITY_SIGN": ">", "CC50 at 20 h / µM": 1000}
{"MOLECULE": "COc1cc([C@@H]2c3cc4c(cc3[C@@H](O[C@@H]3O[C@@H]5CO[C@@H](c6cccs6)O[C@H]5[C@H](O)[C@H]3O)[C@H]3COC(=O)[C@H]23)OCO4)cc(OC)c1O [Teniposide]", "INEQUALITY_SIGN": "=", "CC50 at 20 h / µM": 701}
{"MOLECULE": "COc1ccc2c(O[C@@H]3C[C@H]4C(=O)N[C@]5(C(=O)NS(=O)(=O)C6CC6)C[C@H]5/C=C\\CCCCN(C)C(=O)[C@@H]4C3)cc(-c3nc(C(C)C)cs3)nc2c1C", "INEQUALITY_SIGN": "=", "CC50 at 20 h / µM": 11.1}
{"MOLECULE": "Cc1ccc(C(=O)Nc2ccc(CN3CCN(C)CC3)c(C(F)(F)F)c2)cc1C#Cc1cnc2cccnn12", "INEQUALITY_SIGN": "=", "CC50 at 20 h / µM": 3.1}
{"MOLECULE": "Cc1ccc(C(=O)Nc2ccc(S(=O)(=O)O)c3cc(S(=O)(=O)O)cc(S(=O)(=O)O)c23)cc1NC(=O)c1cccc(NC(=O)Nc2cccc(C(=O)Nc3cc(C(=O)Nc4ccc(S(=O)(=O)O)c5cc(S(=O)(=O)O)cc(S(=O)(=O)O)c45)ccc3C)c2)c1", "INEQUALITY_SIGN": ">", "CC50 at 20 h / µM": 1000}
{"MOLECULE": "CC1(C)CCC(CN2CCN(c3ccc(C(=O)NS(=O)(=O)c4ccc(NCC5CCOCC5)c([N+](=O)[O-])c4)c(Oc4cnc5[nH]ccc5c4)c3)CC2)=C(c2ccc(Cl)cc2)C1", "INEQUALITY_SIGN": "=", "CC50 at 20 h / µM": 10.6}
